Biological target: Human plasma kallikrein (Homo sapiens, UniProt P03952)
Construct: yields a heavy chain (371 amino acids) and a light chain (248 amino acids)
Sequence (P03952 391-638 limits assumed): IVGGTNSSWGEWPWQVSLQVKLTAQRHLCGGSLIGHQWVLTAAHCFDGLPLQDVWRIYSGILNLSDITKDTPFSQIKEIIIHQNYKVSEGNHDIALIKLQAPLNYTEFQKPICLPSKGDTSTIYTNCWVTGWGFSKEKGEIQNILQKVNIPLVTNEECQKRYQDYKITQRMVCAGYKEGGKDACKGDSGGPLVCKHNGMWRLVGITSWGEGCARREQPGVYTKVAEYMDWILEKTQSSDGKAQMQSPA
Sequence (P03952 20-390 partner limits assumed): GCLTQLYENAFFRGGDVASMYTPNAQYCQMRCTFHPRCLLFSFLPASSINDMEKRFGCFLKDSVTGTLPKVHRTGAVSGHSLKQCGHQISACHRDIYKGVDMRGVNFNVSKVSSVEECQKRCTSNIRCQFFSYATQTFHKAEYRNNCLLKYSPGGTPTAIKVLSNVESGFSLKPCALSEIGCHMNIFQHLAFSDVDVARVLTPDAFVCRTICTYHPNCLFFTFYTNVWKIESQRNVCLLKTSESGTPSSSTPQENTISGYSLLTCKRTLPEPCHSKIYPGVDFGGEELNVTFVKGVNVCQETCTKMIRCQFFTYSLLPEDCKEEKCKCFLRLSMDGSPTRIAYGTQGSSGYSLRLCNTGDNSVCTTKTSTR
Experiment: Kallikrein Assay (fluorogenic substrate hydrolysis, AFC release)
Conditions: purified Human plasma kallikrein 0.5 nM; substrate Acetyl-K—P—R-AFC 100 mM; 50 mM HEPES pH 7.4
Description: The effectiveness of a compound of the present invention as an inhibitor of Kallikrein can be determined using a relevant purified serine protease, and an appropriate synthetic substrate. The rate of hydrolysis of the chromogenic or fluorogenic substrate by the relevant serine protease was measured both in the absence and presence of compounds of the present invention. […] A decrease in the rate of fluorescence change in the presence of inhibitor is indicative of enzyme inhibition. […]
observation-type: IC50 (nM)

compound | observation-type | observed
Cc1c(N2C[C@H]3C[C@H]3C2=O)ncc(C(C)n2cc(C(=O)NC3CC(c4cc(Cl)ccc4C#N)C3)cn2)c1F (single isomer, unassigned) | IC50 | 1.2
COc1cc(C(C)n2cc(C(=O)N[C@H]3C[C@@H](c4cc(Cl)ccc4C#N)C3)nn2)cnc1N1C[C@H]2C[C@H]2C1=O (single isomer, unassigned) [Example 102] | IC50 | 3.2

a = Cc1nn(C(C)c2cnc(N3C[C@H]4C[C@H]4C3=O)nc2)cc1C(=O)N[C@H]1C[C@@H](c2cc(Cl)ccc2C#N)C1 (single isomer, unassigned) [Example 15]
b = Cc1cc(N2C[C@H]3C[C@H]3C2=O)cnc1C(C)n1cc(C(=O)N[C@H]2C[C@@H](c3cc(Cl)ccc3C#N)C2)nn1 (single isomer, unassigned) [Example 90]
c = C[C@@H](c1cncc(N2C[C@H]3C[C@H]3C2=O)c1)n1cc(C(=O)N[C@H]2C[C@@H](c3cc(Cl)ccc3C#N)C2)nn1 (single isomer, unassigned)
d = CC(c1ncc(N2C[C@H]3C[C@H]3C2=O)cc1F)n1cc(C(=O)N[C@H]2C[C@@H](c3cc(Cl)ccc3C#N)C2)cn1 (single isomer, unassigned) [Example 27]
Sequence the entries by IC50, beginning with the highest number. Would you mind listing the labels in the order requested?
b, d, c, a

I = Cc1cc(N2C[C@H]3C[C@H]3C2=O)ncc1C(C)n1cc(C(=O)N[C@H]2C[C@@](C)(c3cc(Cl)ccc3C#N)C2)cn1 (single isomer, unassigned) [Example 10]
II = Cc1nc(N2C[C@H]3C[C@H]3C2=O)ncc1C(C)n1cc(C(=O)N[C@H]2C[C@@H](c3cc(Cl)ccc3C#N)C2)nn1 (single isomer, unassigned) [Example 81]
I'd appreciate it if you could identify which of I and II has the greater IC50. Refer to your chosen item by its label in the answer.
I

A = Cc1ccc(C#N)c([C@H]2C[C@@H](NC(=O)c3cn(C(C)c4cnc(N5C[C@H]6C[C@H]6C5=O)c(C)c4)nn3)C2)c1 (single isomer, unassigned) [Example 133]
B = Cc1c(C(C)n2cc(C(=O)N[C@H]3C[C@@H](c4cc(Cl)ccc4C#N)C3)cn2)cnc(N2C[C@H]3C[C@H]3C2=O)c1F (single isomer, unassigned) [Example 29]
I'd appreciate it if you could identify which of A and B has the greater IC50. Refer to your chosen item by its label in the answer.
A

----------
Biological target: Human plasma kallikrein (Homo sapiens, UniProt P03952)
Construct: yields a heavy chain (371 amino acids) and a light chain (248 amino acids)
Assay: Kallikrein Assay (fluorogenic substrate hydrolysis, AFC release)
Conditions: purified Human plasma kallikrein 0.5 nM; substrate Acetyl-K—P—R-AFC 100 mM; 50 mM HEPES pH 7.4
Protocol: The effectiveness of a compound of the present invention as an inhibitor of Kallikrein can be determined using a relevant purified serine protease, and an appropriate synthetic substrate. The rate of hydrolysis of the chromogenic or fluorogenic substrate by the relevant serine protease was measured both in the absence and presence of compounds of the present invention. […] A decrease in the rate of fluorescence change in the presence of inhibitor is indicative of enzyme inhibition. […]
pIC50: −log10 of the molar value.
observation-type: pIC50

Solved entries:
molecule | pIC50
Cc1cc(N2C[C@H]3C[C@H]3C2=O)ncc1[C@@H](C)n1cc(C(=O)NC2CC(c3cc(Cl)ccc3C#N)C2)c([C@H](C)O)n1 (single isomer, unassigned) | 9.10
Cc1cc(N2C[C@H]3C[C@H]3C2=O)ncc1[C@@H](C)n1cc(C(=O)NC2CC(c3cc(Cl)ccc3C#N)C2)c(C(C)O)n1 (single isomer, unassigned) | 9.15

1 = Cc1c([C@H](C)n2cc(C(=O)NC3CC(c4cccc(Cl)c4)C3O)nn2)cnc(N2C[C@H]3C[C@H]3C2=O)c1C (single isomer, unassigned) [Example 151]
2 = Cc1ncc(C(C)n2cc(C(=O)N[C@H]3C[C@@H](c4cc(Cl)ccc4C#N)C3)nn2)cc1N1C[C@H]2C[C@H]2C1=O (single isomer, unassigned) [Example 140]
3 = Cc1c(C(C)n2cc(C(=O)N[C@H]3C[C@@H](c4cc(Cl)ccc4C#N)C3)nn2)cnc(N2C[C@H]3C[C@H]3C2=O)c1F (single isomer, unassigned) [Example 97]
Sequence the entries by pIC50, beginning with the highest number. Would you mind listing the labels in the order requested?
1, 3, 2
(1: 8.96, 3: 8.36, 2: 7.95)
